MEASURED_ON: T1, IL10Rα/IL2Rγ receptor (human) (UniProt Q13651)
T1 sequence (looked up) 1: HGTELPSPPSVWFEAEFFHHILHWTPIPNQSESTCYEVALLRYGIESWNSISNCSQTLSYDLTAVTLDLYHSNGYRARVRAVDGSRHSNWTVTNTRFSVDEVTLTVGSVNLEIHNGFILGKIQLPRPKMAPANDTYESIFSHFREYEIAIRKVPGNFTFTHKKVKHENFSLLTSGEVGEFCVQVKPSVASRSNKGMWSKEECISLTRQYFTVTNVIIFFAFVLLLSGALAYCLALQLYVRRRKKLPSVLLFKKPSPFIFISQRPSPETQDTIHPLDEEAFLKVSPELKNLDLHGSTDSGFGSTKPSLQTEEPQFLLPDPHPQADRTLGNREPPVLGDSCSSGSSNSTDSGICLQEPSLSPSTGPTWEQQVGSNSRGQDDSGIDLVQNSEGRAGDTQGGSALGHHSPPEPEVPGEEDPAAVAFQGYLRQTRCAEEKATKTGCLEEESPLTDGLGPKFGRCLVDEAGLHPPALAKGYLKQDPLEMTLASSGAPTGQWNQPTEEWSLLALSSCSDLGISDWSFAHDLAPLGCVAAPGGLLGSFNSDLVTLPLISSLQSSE
T1 sequence (looked up) 2: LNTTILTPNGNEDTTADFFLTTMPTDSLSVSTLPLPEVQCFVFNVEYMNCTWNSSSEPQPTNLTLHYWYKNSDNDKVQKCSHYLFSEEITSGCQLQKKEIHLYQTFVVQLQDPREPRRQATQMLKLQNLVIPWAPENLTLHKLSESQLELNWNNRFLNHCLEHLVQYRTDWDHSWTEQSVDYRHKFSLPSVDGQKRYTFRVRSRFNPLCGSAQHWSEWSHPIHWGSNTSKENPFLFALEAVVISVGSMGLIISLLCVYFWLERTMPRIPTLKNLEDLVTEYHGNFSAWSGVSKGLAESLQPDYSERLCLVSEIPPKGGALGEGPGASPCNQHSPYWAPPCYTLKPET
EXPERIMENT: cell-based or functional assay
Entries and their Granzyme A secretion, CD8 T cells, at 100 µM values follow.
Number plus unit, in that order.

Please review the entries below; each comes with its answer.
INSERT INTO assay_data (binder, reported_measurement) VALUES
  ('hIL10Ra_VHH14 - hIL2Rg_VHH19, No linker, tag his (bispecific antibody, not shown: small tags and cut ends) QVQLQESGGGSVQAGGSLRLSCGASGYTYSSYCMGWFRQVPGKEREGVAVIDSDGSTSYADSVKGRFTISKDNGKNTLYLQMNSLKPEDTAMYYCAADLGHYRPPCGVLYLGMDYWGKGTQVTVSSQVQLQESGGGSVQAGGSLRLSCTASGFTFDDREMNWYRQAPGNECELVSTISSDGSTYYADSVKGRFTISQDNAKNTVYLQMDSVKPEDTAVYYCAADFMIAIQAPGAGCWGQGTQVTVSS', '27500 pg/mL'),
  ('hIL10Ra_VHH14 - hIL2Rg_VHH19, linker GGGS, tag his (bispecific antibody, not shown: small tags and cut ends) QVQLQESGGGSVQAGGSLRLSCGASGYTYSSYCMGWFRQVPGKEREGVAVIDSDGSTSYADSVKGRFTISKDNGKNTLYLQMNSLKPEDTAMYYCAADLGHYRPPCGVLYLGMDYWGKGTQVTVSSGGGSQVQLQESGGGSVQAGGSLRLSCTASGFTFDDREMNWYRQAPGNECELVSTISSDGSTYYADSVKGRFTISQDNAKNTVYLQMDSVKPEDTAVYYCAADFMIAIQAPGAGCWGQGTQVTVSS', '27300 pg/mL');

--- query ---
**Q:** # query: Granzyme A secretion, CD8 T cells, at 100 µM of entry hIL10Ra_VHH14 - hIL2Rg_VHH19, linker …, tag his (bispecific antibody, not shown: small tags and cut ends) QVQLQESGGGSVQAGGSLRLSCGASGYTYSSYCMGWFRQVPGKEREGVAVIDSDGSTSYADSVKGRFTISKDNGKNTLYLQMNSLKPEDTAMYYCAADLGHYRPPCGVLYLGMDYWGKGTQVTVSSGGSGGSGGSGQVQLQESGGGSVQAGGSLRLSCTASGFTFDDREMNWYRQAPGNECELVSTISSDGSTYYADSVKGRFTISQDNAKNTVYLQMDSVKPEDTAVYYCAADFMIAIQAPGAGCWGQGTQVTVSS
**A:** 29900 pg/mL

Numbers sourced from patent US20250163162A1.
